Measured on: rat P2X7 (Rattus norvegicus)
Measurement notes: Ca2+ flux (FLIPR) in 1321N1 cells expressing recombinant rat P2X7 channel
Condition details: FLIPR (rat) IC50 (μM), 250 μM BzATP
Measurement type: IC50 (µM)

Record excerpt, results attached:
C[C@@H]1c2nnc(-c3ccccn3)n2CCN1C(=O)c1cccc(Cl)c1Cl (single isomer, unassigned)    0.815
C[C@H]1Cn2c(nnc2-c2ccc(F)cc2F)CN1C(=O)c1ccc(F)c(Cl)c1Cl    2.09
O=C(c1cccc(C(F)(F)F)c1Cl)N1CCn2c(nnc2C(F)(F)F)C1c1cccnc1 (racemic)    28.2
O=C(c1cccc(C(F)(F)F)c1Cl)N1CCn2c(C3CCC3)nnc2[C@H]1c1ccccc1    0.0178
C[C@H]1Cn2c(nnc2-c2cccc(F)c2)CN1C(=O)c1cccc(Cl)c1Cl    10.7

(I) O=C(c1cccc(C(F)(F)F)c1Cl)N1CCn2c(-c3ccco3)nnc2[C@@H]1c1ccccc1
(II) C[C@H]1Cn2c(nnc2-c2ccc(F)cc2F)CN1C(=O)c1cccc(Cl)c1Cl
(III) Cc1nnc2n1CCN(C(=O)c1cccc(Cl)c1Cl)[C@@H]2c1ccccn1
(IV) C[C@H]1Cn2c(nnc2-c2cccc(F)c2F)CN1C(=O)c1cccc(C(F)(F)F)c1Cl
(V) O=C(c1cccc(C(F)(F)F)c1Cl)N1CCn2c(nnc2C(F)(F)F)[C@H]1c1ccccc1
Would you mind ranking these compounds by ascending IC50? Show the ranking through the labels, in the order asked for.
I, V, IV, II, III

(A) C[C@H]1Cn2c(nnc2-c2ccc(F)c(F)c2)CN1C(=O)c1cccc(Cl)c1Cl
(B) COc1cnc(-c2nnc3n2C[C@H](C)N(C(=O)c2cccc(C(F)(F)F)c2Cl)C3)nc1
(C) O=C(c1ccc(F)c(Cl)c1Cl)N1CCn2c(nnc2C(F)(F)F)[C@H]1c1ccccc1
Place the items in sequence of falling IC50. Your task in answering is to list the labels in the requested order.
B, A, C
(B: 6.61 µM, A: 1.61 µM, C: 0.288 µM)

---

Measured on: P2X7 (Homo sapiens)
Sequence (Q99572 whole entry): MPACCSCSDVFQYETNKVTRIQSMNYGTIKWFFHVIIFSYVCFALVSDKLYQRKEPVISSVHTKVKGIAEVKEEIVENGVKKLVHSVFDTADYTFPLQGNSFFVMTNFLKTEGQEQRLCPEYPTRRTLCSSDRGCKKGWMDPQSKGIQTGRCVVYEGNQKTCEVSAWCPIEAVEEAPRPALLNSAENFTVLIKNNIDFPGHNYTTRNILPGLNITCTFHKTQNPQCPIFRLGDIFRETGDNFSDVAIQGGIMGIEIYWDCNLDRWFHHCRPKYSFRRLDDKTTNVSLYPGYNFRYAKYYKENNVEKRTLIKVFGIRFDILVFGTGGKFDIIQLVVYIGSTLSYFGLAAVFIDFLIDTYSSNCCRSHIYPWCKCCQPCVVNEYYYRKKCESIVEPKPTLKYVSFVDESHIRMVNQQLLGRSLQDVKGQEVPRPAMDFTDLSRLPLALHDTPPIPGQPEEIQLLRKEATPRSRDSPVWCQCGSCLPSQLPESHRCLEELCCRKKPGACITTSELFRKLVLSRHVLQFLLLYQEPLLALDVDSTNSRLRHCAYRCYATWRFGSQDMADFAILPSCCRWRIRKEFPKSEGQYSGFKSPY
Measurement notes: Ca2+ flux (FLIPR) in 1321N1 cells expressing recombinant human P2X7 channel
Format: cell-based
Design: expressed in transfected cells; host or cells: 1321N1 cells
Condition details: 250 μM BzATP
pIC50: −log10 of the molar value.
Measurement type: pIC50

(P) Cc1c(C(=O)N2CCn3c(C)nnc3[C@@H]2c2ccc(F)cc2)cccc1C(F)(F)F [Example 117]
(Q) CC(C)c1nnc2n1CCN(C(=O)c1cccc(C(F)(F)F)c1Cl)[C@H]2c1ccccc1 [Example 89]
(R) C[C@H]1Cn2c(nnc2-c2ccc(C(F)(F)F)c(F)c2)CN1C(=O)c1cccc(C(F)(F)F)c1Cl [Example 29]
(S) Cc1nnc2n1CCN(C(=O)c1cccc(C(F)(F)F)c1Cl)[C@H]2c1ccccc1 [Example 66]
Arrange these compounds by their pIC50, starting with the largest number. Give the labels in the order requested.
S, P, Q, R
(S: 8.57, P: 7.19, Q: 6.01, R: 5.45)

---

Measured on: rat P2X7 (Rattus norvegicus, UniProt Q64663)
Sequence (Q64663 whole entry): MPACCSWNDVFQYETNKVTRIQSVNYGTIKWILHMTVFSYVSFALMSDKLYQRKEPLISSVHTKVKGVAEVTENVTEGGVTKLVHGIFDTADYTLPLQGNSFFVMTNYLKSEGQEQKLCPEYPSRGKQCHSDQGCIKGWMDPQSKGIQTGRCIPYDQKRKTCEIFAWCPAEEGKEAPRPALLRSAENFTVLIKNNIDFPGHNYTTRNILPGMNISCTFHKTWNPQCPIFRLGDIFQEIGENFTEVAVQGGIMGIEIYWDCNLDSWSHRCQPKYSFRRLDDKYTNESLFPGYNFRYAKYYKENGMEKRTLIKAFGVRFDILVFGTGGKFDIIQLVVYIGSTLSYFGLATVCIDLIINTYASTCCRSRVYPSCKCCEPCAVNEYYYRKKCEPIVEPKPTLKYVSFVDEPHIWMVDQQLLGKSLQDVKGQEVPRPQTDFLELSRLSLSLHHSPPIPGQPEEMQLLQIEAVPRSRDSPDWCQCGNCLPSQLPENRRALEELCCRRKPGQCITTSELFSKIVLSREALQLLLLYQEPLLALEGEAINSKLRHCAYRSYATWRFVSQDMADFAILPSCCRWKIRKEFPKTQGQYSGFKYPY
Measurement notes: Ca2+ flux (FLIPR) in 1321N1 cells expressing recombinant rat P2X7 channel
Condition details: FLIPR (rat) IC50 (μM), 250 μM BzATP
Measurement type: IC50 (µM)

// solved cases for IC50 follow
Cc1nnc2n1CCN(C(=O)c1cccc(C(F)(F)F)c1Cl)[C@@H]2c1ccccn1    2.13
Cc1nnc2n1CCN(C(=O)c1cccc(C(F)(F)F)c1Cl)[C@H]2c1ccc(F)cc1    0.623
O=C(c1cccc(C(F)(F)F)c1Cl)N1CCn2c(C3CCC3)nnc2[C@@H]1c1ccccc1    2.16

(1) Cc1nnc2n1CCN(C(=O)c1cccc(C(F)(F)F)c1Cl)[C@H]2c1ccccc1
(2) O=C(c1ccc(F)cc1Cl)N1CCn2c(nnc2C(F)(F)F)[C@H]1c1ccccc1
(3) C[C@H]1Cn2c(nnc2-c2ccc(F)cc2F)CN1C(=O)c1cccc(C(F)(F)F)c1Cl
(4) O=C(c1cccc(C(F)(F)F)c1Cl)N1CCn2c(C3CC3)nnc2[C@H]1c1ccccc1
Sort the 4 compounds by IC50; largest first, smallest last. When ranking, write the labels in the order the request describes.
2, 4, 3, 1
(2: 19.6 µM, 4: 1.11 µM, 3: 0.578 µM, 1: 0.0269 µM)

Where these numbers come from: patent US12338243B2
